Some molecules, each annotated with its measured IC50.
- measurement_target: D(1A) dopamine receptor (Homo sapiens, UniProt P21728)
- Sequence (P21728 whole entry): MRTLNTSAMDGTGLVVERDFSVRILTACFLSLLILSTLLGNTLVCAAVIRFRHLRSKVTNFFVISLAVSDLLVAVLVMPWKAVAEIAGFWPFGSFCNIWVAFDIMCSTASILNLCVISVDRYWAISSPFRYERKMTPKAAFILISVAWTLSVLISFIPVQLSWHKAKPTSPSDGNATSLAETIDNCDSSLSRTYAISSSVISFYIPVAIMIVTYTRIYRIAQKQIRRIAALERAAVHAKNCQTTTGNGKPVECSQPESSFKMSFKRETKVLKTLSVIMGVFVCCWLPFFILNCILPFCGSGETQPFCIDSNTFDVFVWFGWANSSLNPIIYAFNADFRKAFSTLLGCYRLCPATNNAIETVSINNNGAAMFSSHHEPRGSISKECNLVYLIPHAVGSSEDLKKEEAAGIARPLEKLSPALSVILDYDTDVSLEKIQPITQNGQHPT
- assay: Inhibition of dopamine D1 receptor (unknown origin)

> print(dat)
                          given.smiles  meas.value
1  CCC[C@@H](CCO)Nc1nc(N)nc2c(F)cccc12     > 10 µM

Consider the molecule CCC[C@@H](CCO)Nc1nc(N)nc2cc(OC)ccc12 and give its measured IC50.
5.75 µM

---

- assay: Cmax in C57BL/6J mouse plasma at 10 mg/kg, po by LC-MS analysis
- Format: ADME, organism-based
- Design: dose 10 mg/kg, route oral
property_name: Cmax
Report the figure along with its unit, number first.

Consider the compound CCC[C@@H](CCO)Nc1nc(N)nc2c(F)cccc12 and give its measured Cmax.
148 ng/mL
